Tgt: Glutamate NMDA receptor; Grin1/Grin2a (Rattus norvegicus, UniProt P35439+Q00959)
Sequence (Q00959 whole entry, other chains not shown): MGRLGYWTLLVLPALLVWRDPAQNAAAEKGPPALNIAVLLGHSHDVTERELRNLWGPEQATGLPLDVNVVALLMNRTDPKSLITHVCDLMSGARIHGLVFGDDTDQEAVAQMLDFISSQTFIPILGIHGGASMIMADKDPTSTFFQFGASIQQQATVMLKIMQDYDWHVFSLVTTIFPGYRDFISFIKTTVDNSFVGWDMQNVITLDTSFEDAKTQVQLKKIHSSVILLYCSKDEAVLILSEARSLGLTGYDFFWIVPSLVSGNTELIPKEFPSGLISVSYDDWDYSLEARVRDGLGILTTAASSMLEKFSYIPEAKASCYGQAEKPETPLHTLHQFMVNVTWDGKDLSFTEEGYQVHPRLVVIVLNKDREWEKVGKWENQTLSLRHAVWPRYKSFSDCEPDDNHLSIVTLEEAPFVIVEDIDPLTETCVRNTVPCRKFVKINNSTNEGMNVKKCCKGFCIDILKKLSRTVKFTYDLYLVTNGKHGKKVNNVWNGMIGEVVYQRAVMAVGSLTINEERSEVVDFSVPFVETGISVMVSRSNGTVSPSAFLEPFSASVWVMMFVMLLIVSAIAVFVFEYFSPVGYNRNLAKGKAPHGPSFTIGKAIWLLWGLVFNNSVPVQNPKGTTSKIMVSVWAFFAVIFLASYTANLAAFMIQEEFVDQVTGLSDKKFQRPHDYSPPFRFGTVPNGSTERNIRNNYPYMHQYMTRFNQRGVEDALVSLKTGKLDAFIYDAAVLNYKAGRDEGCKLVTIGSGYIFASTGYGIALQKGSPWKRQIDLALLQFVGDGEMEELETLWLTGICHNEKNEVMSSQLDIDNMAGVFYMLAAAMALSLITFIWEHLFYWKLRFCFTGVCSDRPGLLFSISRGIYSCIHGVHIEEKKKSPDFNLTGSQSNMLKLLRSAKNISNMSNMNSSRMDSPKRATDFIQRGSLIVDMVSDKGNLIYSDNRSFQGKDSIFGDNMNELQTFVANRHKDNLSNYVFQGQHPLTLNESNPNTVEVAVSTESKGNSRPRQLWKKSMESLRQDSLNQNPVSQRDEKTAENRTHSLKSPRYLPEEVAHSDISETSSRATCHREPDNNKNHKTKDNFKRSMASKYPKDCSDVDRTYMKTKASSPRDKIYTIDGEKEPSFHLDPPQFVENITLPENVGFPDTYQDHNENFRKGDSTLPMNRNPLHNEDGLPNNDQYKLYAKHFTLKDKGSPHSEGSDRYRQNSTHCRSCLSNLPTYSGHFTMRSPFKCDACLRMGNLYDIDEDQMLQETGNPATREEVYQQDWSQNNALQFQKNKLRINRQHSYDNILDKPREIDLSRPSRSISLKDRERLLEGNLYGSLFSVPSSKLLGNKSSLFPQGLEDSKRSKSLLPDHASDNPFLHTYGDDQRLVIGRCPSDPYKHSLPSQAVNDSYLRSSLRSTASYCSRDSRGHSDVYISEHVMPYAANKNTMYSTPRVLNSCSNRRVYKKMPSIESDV
Assay notes: Antagonist activity at rat recombinant NR1-NR2A receptor expressed in Xenopus oocytes at holding potential of -40mV by two-electrode voltage-clamp electrophysiology
Format: functional, cell-based, Oocyte
Test context: read-out: IC50
Task for the reader: assign each of the following compounds its reported IC50.
// units = µM; emit number, no label

q: // output IC50; input "O=C(O)c1ccc(-n2c(/C=C/c3cccnc3)nc3ccc(I)cc3c2=O)cc1" ; system Glutamate NMDA receptor; Grin1/Grin2a (Rattus norvegicus, UniProt P35439+Q00959)
a: 26

q: Provide IC50, tested on Glutamate NMDA receptor; Grin1/Grin2a (Rattus norvegicus, UniProt P35439+Q00959), for "O=C(O)c1ccc(-n2c(/C=C/c3ccc(C(F)(F)F)cc3)nc3ccccc3c2=O)cc1" .
a: 61

q: GET IC50 where system = Glutamate NMDA receptor; Grin1/Grin2a (Rattus norvegicus, UniProt P35439+Q00959) and item = "CC(C)c1ccc2nc(/C=C/c3cccc([N+](=O)[O-])c3)n(-c3ccc(C(=O)O)cc3)c(=O)c2c1"
a: 101

q: Give IC50; test system Glutamate NMDA receptor; Grin1/Grin2a (Rattus norvegicus, UniProt P35439+Q00959); compound "O=C(O)c1ccc(-n2c(/C=C/c3cccc([N+](=O)[O-])c3)nc3c(Cl)cc(Cl)cc3c2=O)cc1"
a: 224

q: Report measured IC50 on Glutamate NMDA receptor; Grin1/Grin2a (Rattus norvegicus, UniProt P35439+Q00959); entry: "O=C(O)c1ccc(-n2c(/C=C/c3ccc4ccccc4c3)nc3ccccc3c2=O)cc1"
a: 21

* * *

Tgt: Glutamate receptor 1 (Rattus norvegicus)
Sequence (P19490 whole entry): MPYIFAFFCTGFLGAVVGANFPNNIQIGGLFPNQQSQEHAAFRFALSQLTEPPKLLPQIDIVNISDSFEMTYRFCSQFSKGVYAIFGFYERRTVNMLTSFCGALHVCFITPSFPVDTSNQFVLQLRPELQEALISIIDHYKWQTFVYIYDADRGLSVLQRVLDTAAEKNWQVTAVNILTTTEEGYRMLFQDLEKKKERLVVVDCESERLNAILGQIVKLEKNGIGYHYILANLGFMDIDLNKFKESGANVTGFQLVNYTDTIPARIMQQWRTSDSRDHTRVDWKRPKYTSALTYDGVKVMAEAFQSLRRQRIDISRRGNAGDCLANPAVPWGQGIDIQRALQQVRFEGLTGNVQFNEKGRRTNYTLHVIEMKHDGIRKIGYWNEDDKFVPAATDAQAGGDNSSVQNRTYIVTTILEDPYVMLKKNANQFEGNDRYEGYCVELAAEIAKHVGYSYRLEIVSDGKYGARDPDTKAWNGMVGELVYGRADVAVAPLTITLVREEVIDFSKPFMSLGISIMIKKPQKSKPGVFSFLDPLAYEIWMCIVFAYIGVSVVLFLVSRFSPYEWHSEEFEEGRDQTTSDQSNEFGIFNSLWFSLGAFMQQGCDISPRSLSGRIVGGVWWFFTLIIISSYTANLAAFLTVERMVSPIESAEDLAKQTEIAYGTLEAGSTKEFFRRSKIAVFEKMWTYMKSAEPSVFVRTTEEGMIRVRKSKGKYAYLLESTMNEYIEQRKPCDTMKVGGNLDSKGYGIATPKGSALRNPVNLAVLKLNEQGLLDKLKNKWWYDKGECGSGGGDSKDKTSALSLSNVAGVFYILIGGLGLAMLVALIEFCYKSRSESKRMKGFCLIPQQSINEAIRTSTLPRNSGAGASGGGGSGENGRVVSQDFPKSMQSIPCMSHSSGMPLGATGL
Assay notes: Antagonist activity at rat recombinant GLuR1 expressed in Xenopus oocytes assessed as inhibition of glutamate-induced current by two-electrode voltage-clamp electrophysiology
pIC50: −log10 of the molar value.
Classify by measured pIC50: criterion met if it is equal to or exceeds 4, criterion not met if it is smaller.

q: Identify whether the reported pIC50 of the following molecule is 4 or greater: "O=C(O)c1cccc(-n2c(/C=C/c3cccc([N+](=O)[O-])c3)nc3ccc(I)cc3c2=O)c1"
a: criterion met

q: Confirm if pIC50 reported for the molecule "O=C(O)c1ccc(-n2c(/C=C/c3cccc([N+](=O)[O-])c3)nc3ccc(I)cc3c2=O)cc1" is 4 or above.
a: criterion met

q: Assess whether reported pIC50 for "Cc1ccccc1/C=C/c1nc2ccccc2c(=O)n1-c1ccc(C(=O)O)cc1" sits at 4 or higher.
a: criterion met

q: Check this molecule for pIC50 at or above 4: "COc1cccc(-n2c(/C=C/c3cccnc3)nc3ccc(I)cc3c2=O)c1"
a: criterion not met

q: Does pIC50 meet or surpass 4 for "CCCc1ccc2nc(/C=C/c3cccc([N+](=O)[O-])c3)n(-c3ccc(C(=O)O)cc3)c(=O)c2c1" ?
a: criterion met

q: Is pIC50 at least 4? Consider "N#Cc1ccc(/C=C/c2nc3ccccc3c(=O)n2-c2ccc(C(=O)O)cc2)cc1"
a: criterion not met

q: API: above_or_equal(metric=pIC50, cutoff=4) for item "O=C(O)c1ccc(-n2c(/C=C/c3cccc([N+](=O)[O-])c3)nc3cc4c(cc3c2=O)OCCO4)cc1"
a: criterion not met

q: Does the reported pIC50 for "COc1ccccc1/C=C/c1nc2ccccc2c(=O)n1-c1ccc(C(=O)O)cc1" fall at or above the 4 mark?
a: criterion met

q: Evaluate "O=C(O)c1ccc(-n2c(/C=C/c3ccccc3)nc3ccc(I)cc3c2=O)cc1" : pIC50 at minimum 4?
a: criterion met

q: Has "O=C(O)c1cccc(-n2c(/C=C/c3cccnc3)nc3ccc(I)cc3c2=O)c1" a recorded pIC50 greater than or equal to 4?
a: criterion met

q: Kindly determine if pIC50 recorded for "Cc1ccc2nc(CCc3ccccc3)n(-c3ccc(C(=O)O)cc3)c(=O)c2c1" is above or exactly 4.
a: criterion not met

q: Given "COc1ccccc1-n1c(/C=C/c2cccnc2)nc2ccc(I)cc2c1=O" , state whether its pIC50 is at least 4.
a: criterion not met

q: Exam item: decide whether the reported pIC50 for "O=C(O)c1ccc(-n2c(/C=C/c3ccccc3)nc3ccccc3c2=O)cc1" is at least 4.
a: criterion met

q: Does "Cc1cccc(-n2c(/C=C/c3cccnc3)nc3ccc(I)cc3c2=O)c1" have a reported pIC50 of at least 4?
a: criterion not met

q: Quick check, pIC50 >= 4? "O=C(O)c1ccc(-n2c(/C=C/c3cccc([N+](=O)[O-])c3)nc3cc4ccccc4cc3c2=O)cc1"
a: criterion met

q: Could you verify whether the entry "O=c1c2ccccc2nc(/C=C/c2cccnc2)n1-c1ccccc1" shows pIC50 of no less than 4?
a: criterion met

q: Tell me whether pIC50 is at least 4 here: "O=C(O)c1ccc(-n2c(/C=C/c3cccc([N+](=O)[O-])c3)nc3ccc(-c4cccs4)cc3c2=O)cc1"
a: criterion not met

q: Identify whether the reported pIC50 of the following molecule is 4 or greater: "O=C(O)c1ccc(-n2c(/C=C/c3ccccc3O)nc3ccccc3c2=O)cc1"
a: criterion met

q: Could you verify whether the entry "O=C(O)c1cccc(-n2c(/C=C/c3ccc([N+](=O)[O-])cc3)nc3ccccc3c2=O)c1" shows pIC50 of no less than 4?
a: criterion not met

q: Answer whether pIC50 of "COc1cccc(-n2c(/C=C/c3ccccc3[N+](=O)[O-])nc3ccccc3c2=O)c1" is greater than or equal to 4.
a: criterion not met

q: Say whether "COc1ccc2nc(/C=C/c3ccc([N+](=O)[O-])cc3)n(-c3cccc(C(=O)O)c3)c(=O)c2c1" shows pIC50 of 4 or more.
a: criterion not met

q: Given the entry "CSc1ccc(/C=C/c2nc3ccccc3c(=O)n2-c2ccc(C(=O)O)cc2)cc1" , answer whether its pIC50 meets or surpasses 4.
a: criterion not met

q: Reported pIC50 at or above 4? "COc1cccc(-n2c(/C=C/c3ccc([N+](=O)[O-])cc3)nc3ccccc3c2=O)c1"
a: criterion not met

q: Is it the case that "O=C(O)c1ccc(-n2c(/C=C/c3ccc4ccccc4c3)nc3ccccc3c2=O)cc1" has pIC50 reaching or exceeding 4?
a: criterion not met

q: Does the reported pIC50 for "Cc1ccc2nc(/C=C/c3cccc([N+](=O)[O-])c3)n(-c3ccc(C(=O)O)cc3)c(=O)c2c1" fall at or above the 4 mark?
a: criterion met

q: Item "COc1ccccc1-n1c(/C=C/c2ccccc2[N+](=O)[O-])nc2ccccc2c1=O" with pIC50 of 4 or above?
a: criterion met

q: Hi, just wondering whether "COc1ccc2nc(/C=C/c3cccc([N+](=O)[O-])c3)n(-c3cccc(C(=O)O)c3)c(=O)c2c1" shows pIC50 of 4 or higher.
a: criterion not met

q: Determine whether this molecule has pIC50 no lower than 4: "O=C(O)c1ccc(-n2c(/C=C/c3ccc(C(F)(F)F)cc3)nc3ccccc3c2=O)cc1"
a: criterion not met

q: Is reported pIC50 greater than or equal to 4 here: "Cc1ccc(-n2c(/C=C/c3cccnc3)nc3ccc(I)cc3c2=O)cc1"
a: criterion not met

q: Quick check: does "O=C(O)c1ccc(-n2c(/C=C/c3cccc([N+](=O)[O-])c3)nc3ccc([N+](=O)[O-])cc3c2=O)cc1" have pIC50 greater than or equal to 4?
a: criterion not met
